# Target System: IKZF2 Helios (Homo sapiens, UniProt Q96SW2+Q9UKS7)
# Sequence (Q9UKS7 whole entry): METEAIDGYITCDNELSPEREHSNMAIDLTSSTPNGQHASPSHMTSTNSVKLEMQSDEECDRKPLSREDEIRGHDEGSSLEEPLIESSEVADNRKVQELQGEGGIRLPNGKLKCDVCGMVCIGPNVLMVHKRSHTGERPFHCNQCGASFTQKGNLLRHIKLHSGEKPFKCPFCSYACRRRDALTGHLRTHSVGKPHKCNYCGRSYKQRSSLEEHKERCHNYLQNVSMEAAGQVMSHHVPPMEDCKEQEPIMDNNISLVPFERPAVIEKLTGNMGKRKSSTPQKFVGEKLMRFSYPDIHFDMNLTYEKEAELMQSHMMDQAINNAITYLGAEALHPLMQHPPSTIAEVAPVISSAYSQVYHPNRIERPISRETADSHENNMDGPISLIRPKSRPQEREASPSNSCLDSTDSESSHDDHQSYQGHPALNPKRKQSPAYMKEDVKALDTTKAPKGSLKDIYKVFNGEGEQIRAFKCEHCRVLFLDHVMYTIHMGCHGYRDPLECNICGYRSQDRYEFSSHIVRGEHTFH
# Sequence (Q96SW2 whole entry): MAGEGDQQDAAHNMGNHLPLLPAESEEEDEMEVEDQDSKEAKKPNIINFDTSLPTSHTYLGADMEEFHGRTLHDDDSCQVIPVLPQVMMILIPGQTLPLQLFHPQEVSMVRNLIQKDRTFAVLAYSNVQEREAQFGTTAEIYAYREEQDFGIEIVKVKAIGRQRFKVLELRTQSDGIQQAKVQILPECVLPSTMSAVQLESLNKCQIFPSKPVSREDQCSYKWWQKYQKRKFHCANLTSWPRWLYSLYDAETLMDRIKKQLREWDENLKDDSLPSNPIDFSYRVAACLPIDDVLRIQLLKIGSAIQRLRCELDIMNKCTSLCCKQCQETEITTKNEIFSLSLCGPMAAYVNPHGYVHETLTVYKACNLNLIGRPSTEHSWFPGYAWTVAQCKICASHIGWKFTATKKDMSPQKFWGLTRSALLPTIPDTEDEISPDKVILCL
# Sequence (Q16531 whole entry partner): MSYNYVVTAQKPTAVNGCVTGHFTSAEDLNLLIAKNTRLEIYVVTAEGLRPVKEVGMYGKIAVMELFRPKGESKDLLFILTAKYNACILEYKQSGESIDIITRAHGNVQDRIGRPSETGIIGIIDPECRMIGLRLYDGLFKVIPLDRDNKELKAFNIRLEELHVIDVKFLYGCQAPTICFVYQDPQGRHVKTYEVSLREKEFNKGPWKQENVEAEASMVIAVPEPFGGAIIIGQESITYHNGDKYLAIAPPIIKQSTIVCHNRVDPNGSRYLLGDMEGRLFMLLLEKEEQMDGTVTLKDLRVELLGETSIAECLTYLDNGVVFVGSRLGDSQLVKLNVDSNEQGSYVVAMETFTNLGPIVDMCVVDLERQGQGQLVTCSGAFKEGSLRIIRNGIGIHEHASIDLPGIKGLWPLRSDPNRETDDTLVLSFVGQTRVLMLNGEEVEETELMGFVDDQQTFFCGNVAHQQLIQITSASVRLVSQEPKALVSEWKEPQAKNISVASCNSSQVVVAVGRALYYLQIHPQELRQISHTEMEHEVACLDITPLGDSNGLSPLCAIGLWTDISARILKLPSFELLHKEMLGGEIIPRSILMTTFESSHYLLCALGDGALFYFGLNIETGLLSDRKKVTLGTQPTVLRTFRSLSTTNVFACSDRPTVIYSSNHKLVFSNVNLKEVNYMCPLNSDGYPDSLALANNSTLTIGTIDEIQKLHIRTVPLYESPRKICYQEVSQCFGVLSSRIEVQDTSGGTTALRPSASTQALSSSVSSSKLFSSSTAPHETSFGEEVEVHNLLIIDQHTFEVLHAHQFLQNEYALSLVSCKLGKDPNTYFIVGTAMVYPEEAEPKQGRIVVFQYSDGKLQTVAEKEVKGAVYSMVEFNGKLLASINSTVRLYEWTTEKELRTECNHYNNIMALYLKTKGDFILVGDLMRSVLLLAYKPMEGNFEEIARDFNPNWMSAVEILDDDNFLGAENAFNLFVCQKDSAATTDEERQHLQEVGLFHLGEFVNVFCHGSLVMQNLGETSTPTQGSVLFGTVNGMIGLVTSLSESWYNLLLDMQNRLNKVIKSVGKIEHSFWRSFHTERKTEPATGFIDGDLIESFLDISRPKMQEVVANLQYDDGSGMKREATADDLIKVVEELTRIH
# Measurement Notes: Human Regulatory T Cell Reprogramming Assay
# Assay type: cell-based
# Set-up: endogenous in cells; host or cells: primary human CD4+CD127lowCD25+ Treg cells from healthy leukopaks
# Experimental Conditions: CD4+CD127lowCD25+ Treg cells, 12-13 days with compound
# yes = IKZF2 Helios max % deg. observed below 70% (exclusive); no = IKZF2 Helios max % deg. observed at/above 70%

Enquiry: # TODO verify IKZF2 Helios max % deg. observed < 70% strictly for this compound: O=C1CCC(n2cc(-c3ccccc3)oc2=O)C(=O)N1 (stereo not drawn) [Comparative Compound A, reference compound]
Return: yes

Enquiry: # TODO verify IKZF2 Helios max % deg. observed < 70% strictly for this compound: O=C1CCC(n2cc(-c3ccc(Br)cc3F)oc2=O)C(=O)N1 (stereo not drawn) [Comparative Compound B, reference compound]
Return: yes

Enquiry: # TODO verify IKZF2 Helios max % deg. observed < 70% strictly for this compound: Cc1cc(-c2ccc(-c3cn(C4CCC(=O)NC4=O)c(=O)o3)c(F)c2)nc(N)c1NCC1CCOCC1 (stereo not drawn)
Return: no

Enquiry: # TODO verify IKZF2 Helios max % deg. observed < 70% strictly for this compound: COC1CCN(Cc2ccc(-c3ccc(-c4cn(C5CCC(=O)NC5=O)c(=O)o4)c(F)c3)nc2N)CC1 (stereo not drawn)
Return: yes

Enquiry: # TODO verify IKZF2 Helios max % deg. observed < 70% strictly for this compound: CO[C@H]1C[C@H](Oc2c(C)cc(-c3ccc(-c4cn(C5CCC(=O)NC5=O)c(=O)o4)c(F)c3)nc2N)C1 (relative stereo)
Return: no

====

# Target System: IKZF2 Helios (Homo sapiens, UniProt Q96SW2+Q9UKS7)
# Measurement Notes: Human Regulatory T Cell Degradation Assay
# Type: cell-based
# Parameters: endogenous in cells; host or cells: primary human CD4+CD127lowCD25+ Treg cells from healthy leukopaks
# Experimental Conditions: human regulatory T cells, 20 hours; vs DMSO alone
# Fulfilled = DC50 below 0.05 µM (exclusive); Not fulfilled = DC50 at/above 0.05 µM

Here are 3 compounds together with their reported answers.
Cc1cc(-c2ccc(-c3cn(C4CCC(=O)NC4=O)c(=O)o3)c(F)c2)nc(N)c1COC1CCOCC1 (centres unmarked) ... Fulfilled
CO[C@H]1C[C@H](Oc2c(C)cc(-c3ccc(-c4cn(C5CCC(=O)NC5=O)c(=O)o4)c(F)c3)nc2N)C1 (relative stereo) ... Not fulfilled
COC1CCN(Cc2ccc(-c3ccc(-c4cn(C5CCC(=O)NC5=O)c(=O)o4)c(F)c3)nc2N)CC1 (centres unmarked) ... Not fulfilled

Enquiry: # TODO verify DC50 < 0.05 µM strictly for this compound: CC1(C)Cc2cc(-c3ccc(-c4cn(C5CCC(=O)NC5=O)c(=O)o4)c(F)c3)nc(N)c2O1 (centres unmarked)
Return: Not fulfilled
